Molecular target: T1, human VEGF-A residues 27-191 of Accession #AAV38412 (human, UniProt P15692 27-191)
T1 construct: range 27-191
T1 sequence (P15692 other isoform, or with tags, fused parts or gaps limits assumed): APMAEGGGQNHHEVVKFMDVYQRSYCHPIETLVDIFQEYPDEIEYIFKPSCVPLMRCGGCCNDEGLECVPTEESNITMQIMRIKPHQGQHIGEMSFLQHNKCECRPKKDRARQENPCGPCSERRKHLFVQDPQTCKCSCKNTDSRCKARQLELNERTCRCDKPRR
Test: BIAcore SPR
result-type: kon (M⁻¹ s⁻¹)
Write the answer as a number in M⁻¹ s⁻¹, unit excluded.

Short answer for T30 N (anti-VEGF IgG) (antibody, V domains shown, copies: 2 + 2) VH: EVQLVESGGGLVQPGGSLRLSCAASGYTFNNYGMNWVRQAPGKGLEWVGWINTYTGEPTYAADFKRRFTFSLDTSKSTAYLQMNSLRAEDTAVYYCAKYPHYYGSSHWYFDVWGQGTLVTVSS VL: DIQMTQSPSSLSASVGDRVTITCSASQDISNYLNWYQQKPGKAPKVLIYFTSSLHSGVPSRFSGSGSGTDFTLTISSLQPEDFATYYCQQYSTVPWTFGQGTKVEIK : kon was 170000
